Tested on: Botrytis cinerea
Assay: Sterilization test (growth inhibition of Botrytis cinerea in potato dextrose medium, 96-well microplate, turbidity 405 nm)
Assay type: cell-based
Details: Botrytis cinerea; Example 2 (Tables 6-8); drug II alone 10 ppm; read-out: Growth inhibition rate
PROPERTY_MEASURED: inhibition at 10 ppm (%)

- C/C(=N\C#N)N(C)Cc1ccc(Cl)nc1: 0
- CN1COCN(Cc2cnc(Cl)s2)/C1=N\[N+](=O)[O-]: 0
- N#Cc1nn(-c2c(Cl)cc(C(F)(F)F)cc2Cl)c(N)c1[S+]([O-])C(F)(F)F (stereo not drawn): 12
- C[C@@H]1[C@@H](c2ccc(Cl)cc2)SC(=O)N1C(=O)NC1CCCCC1: 0
- CCc1ccc(C(=O)NN(C(=O)c2cc(C)cc(C)c2)C(C)(C)C)cc1 [Drug 44, Tebufenozide]: 0
- CN/C(=N\[N+](=O)[O-])NCc1cnc(Cl)s1: 4
- O=[N+]([O-])NC1=NCCN1Cc1ccc(Cl)nc1: 0
- CCOP(=S)(OCC)Oc1nc(Cl)c(Cl)cc1Cl: 0
- CC1=NNC(=O)N(/N=C/c2cccnc2)C1: 3
- CN/C(=N/CC1CCOC1)N[N+](=O)[O-] (stereo not drawn): 0
- CC(C)N1C(=O)N(c2ccccc2)CS/C1=N\C(C)(C)C: 0
- CS/C(C)=N\OC(=O)N(C)SN(C)C(=O)O/N=C(\C)SC: 0
